Measured values drawn from patent US20260250290A1 for this set.

Target: full length SGK1 (Homo sapiens, UniProt O00141)
Construct: 125 μM full length SGK1 (Life Technologies Part #PR7358A); purchased Life Technologies PR7358A
Sequence (O00141 1-431): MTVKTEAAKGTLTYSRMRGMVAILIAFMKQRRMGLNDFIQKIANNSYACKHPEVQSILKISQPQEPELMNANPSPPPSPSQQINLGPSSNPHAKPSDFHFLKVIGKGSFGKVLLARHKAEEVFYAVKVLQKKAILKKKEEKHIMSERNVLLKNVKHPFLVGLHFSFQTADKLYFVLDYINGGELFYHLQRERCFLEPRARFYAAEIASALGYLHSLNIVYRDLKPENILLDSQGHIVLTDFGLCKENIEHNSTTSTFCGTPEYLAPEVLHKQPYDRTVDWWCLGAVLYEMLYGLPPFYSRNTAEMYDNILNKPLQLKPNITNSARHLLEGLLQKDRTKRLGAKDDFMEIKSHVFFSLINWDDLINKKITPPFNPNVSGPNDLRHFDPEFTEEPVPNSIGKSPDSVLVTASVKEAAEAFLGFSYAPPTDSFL
Assay: SGK1 inhibition Assay A (Caliper LabChip electrophoretic separation of fluorescent peptide substrate and phosphorylated product)
Format: biochemical
Conditions: Assay A; 20 μM ATP, 40 min incubation; read-out: SGK1 IC50
pIC50: −log10 of the molar value. Structures can show the parent of a compound that is named as a salt.
pIC50 vs 7: at or above is T, below is F.

Problem: Check this molecule for pIC50 at or above 7: CCN(CC)CCOc1cc(C(F)F)sc1C(=O)N[C@@H]1CCCN(c2cc(-c3cncnc3)n3ncnc(N)c23)C1 [Example 410]
Result: F

Problem: // inclusive: pIC50 at least 7? input: COC(=O)N1CC=C(c2cc(N3CCC[C@@H](NC(=O)c4sc(C5CC5)cc4OC4CCNCC4)C3)c3c(N)ncnn23)C1 [Example 379]
Result: T

Problem: Assess whether reported pIC50 for Nc1ncnn2c(-c3ccc(S(=O)(=O)C4CC4)cc3)cc(N3CCC[C@@H](NC(=O)c4ccc(Cl)s4)C3)c12 [Example 228, TFA] sits at 7 or higher.
Result: T

Problem: # bool: pIC50 of CC(=O)NCCOc1cc(C(F)F)sc1C(=O)N[C@@H]1CCCN(c2cc(-c3ccc(C#N)nc3)n3ncnc(N)c23)C1 [Example 425] >= 7
Result: T

Problem: Check the entry CC(=O)N1CC=C(c2cc(N3CCC[C@@H](NC(=O)c4sc(C(F)F)cc4C4CCN(C(C)C)C4)C3)c3c(N)ncnn23)C1 (stereo partly shown) [Example 407] : does pIC50 equal or exceed 7?
Result: F

---

Molecular target: full length SGK1 (Homo sapiens)
Construct: 125 μM full length SGK1 (Life Technologies Part #PR7358A); purchased Life Technologies PR7358A
Sequence (O00141 1-431): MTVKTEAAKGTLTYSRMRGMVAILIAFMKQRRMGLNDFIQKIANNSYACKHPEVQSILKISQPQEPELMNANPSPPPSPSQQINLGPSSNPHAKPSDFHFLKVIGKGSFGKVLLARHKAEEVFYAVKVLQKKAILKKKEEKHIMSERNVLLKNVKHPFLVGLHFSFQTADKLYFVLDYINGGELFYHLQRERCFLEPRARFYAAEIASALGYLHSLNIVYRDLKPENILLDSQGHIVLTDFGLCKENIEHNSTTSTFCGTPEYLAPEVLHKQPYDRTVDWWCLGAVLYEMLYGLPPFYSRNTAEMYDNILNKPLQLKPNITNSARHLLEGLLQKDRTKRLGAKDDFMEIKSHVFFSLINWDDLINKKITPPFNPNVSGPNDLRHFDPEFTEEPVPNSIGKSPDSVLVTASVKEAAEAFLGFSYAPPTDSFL
Test: SGK1 inhibition Assay A (Caliper LabChip electrophoretic separation of fluorescent peptide substrate and phosphorylated product)
Type: biochemical
Conditions: Assay A; 20 μM ATP, 40 min incubation; read-out: SGK1 IC50
Readout kind: IC50
Be sure to follow the number with its unit.

Problem: Determine from records and report IC50 for COC(=O)N1CC=C(c2cc(N3CCC[C@@H](NC(=O)c4sc(Cl)cc4OCCN4CC5(COC5)C4)C3)c3c(N)ncnn23)C1 [Example 289]
Result: 14 nM

Problem: Report IC50, nothing else, for this molecule: CC(=O)N1CC=C(c2cc(N3CCC[C@@H](NC(=O)c4sc(C(F)F)cc4OCCN(C)C)C3)c3c(N)ncnn23)C1 [Example 305]
Result: 15 nM

Problem: Return reported IC50. Input molecule: COc1cc(C(=O)N[C@@H]2CCCN(c3cc(C4=CCN(S(C)(=O)=O)C4)n4ncnc(N)c34)C2)ccn1 [Example 114]
Result: 16 nM
